Test system: HCC-2998 colon
test.details: NCI tumour cell line growth inhibition, 48 h
I'd appreciate it if you could supply TGI values for the items below.

Task item: State the recorded TGI for this entry: O=C(NCCCN1CCN(CCCNC(=O)c2cnc3ccccc3n2)CC1)c1cnc2ccccc2n1
Reply: > 100 µM

Task item: State the recorded TGI for this entry: O=C(Nc1ccc(Cl)cc1)c1cc(S(=O)(=O)Nc2n[nH]c(=O)[nH]2)c(SSc2cc(Cl)c(C(=O)Nc3ccc(Cl)cc3)cc2S(=O)(=O)Nc2n[nH]c(=O)[nH]2)cc1Cl
Reply: > 100 µM

Task item: State the recorded TGI for this entry: CCOC(=O)C(Cc1ccc2c(c1)CCC2)(Cc1ccc2c(c1)CCC2)C(=O)OCC
Reply: > 100 µM

Task item: State the recorded TGI for this entry: C/C(=N/O)C1CC=C(S(=O)(=O)c2ccccc2)C1 (stereo unspecified)
Reply: > 100 µM

Task item: State the recorded TGI for this entry: CCc1cccc(C(C)CC)c1N=C(NC(=O)c1ccccc1C(=O)NC(=Nc1c(CC)cccc1C(C)CC)SC)SC (stereo unspecified)
Reply: > 100 µM

Task item: State the recorded TGI for this entry: CCCc1cc(=O)oc2c(C(=O)CC(C)C)c(O)c(CC=C(C)C)c(O)c12
Reply: > 50 µM

Task item: State the recorded TGI for this entry: COc1ccc(C2CCc3nc4nc(N)nc(N)c4cc3C2)cc1 (stereo unspecified)
Reply: > 100 µM

Task item: State the recorded TGI for this entry: O=C1NC(=NCc2cccs2)SC1Cc1ccc2ncccc2c1 (stereo unspecified)
Reply: > 25 µM

Task item: State the recorded TGI for this entry: COc1ccc2c(c1)C(=O)c1c-2n(CCCN=[N+]=[N-])c(=O)c2ccccc12
Reply: > 100 µM

Task item: State the recorded TGI for this entry: COc1ccc(CN2c3ccccc3Sc3ccccc32)cc1F
Reply: > 35.8 µM

Task item: State the recorded TGI for this entry: CCOc1ccccc1NC(=O)C(=O)CC(=O)C1=C(C)Nc2ccccc2S1
Reply: > 100 µM

---

Test system: BT-549 breast
test.details: NCI tumour cell line growth inhibition, 48 h
property.measured: TGI

Task item: State the recorded TGI for this entry: N#Cc1ccc(Oc2nccc(-c3c(-c4ccc(F)cc4)ncn3C3CCNCC3)n2)cc1
Reply: > 25 µM

Task item: State the recorded TGI for this entry: CCOC(=O)c1ccc(N=C2SC(=S)N(c3ccc(F)cc3)C2=Nc2ccc(C(=O)OCC)cc2)cc1
Reply: 40.6 µM

Task item: State the recorded TGI for this entry: C/C(CC(O)(C(F)(F)F)C(F)(F)F)=N\N
Reply: > 10 µM

---

Test system: OVCAR-8 ovarian
test.details: NCI tumour cell line growth inhibition, 48 h
I'd appreciate it if you could supply TGI values for the items below.

Task item: State the recorded TGI for this entry: CC(=O)NNc1nc(C)c(C(=O)NNC(=O)C(=O)Nc2ccc(C)c(C)c2)s1
Reply: > 100 µM

Task item: State the recorded TGI for this entry: C=CCC(C(=O)OC)C1(C(=O)OC)c2[nH]c3ccccc3c2CCN1Cc1ccccc1 (centres undefined)
Reply: > 100 µM

Task item: State the recorded TGI for this entry: CCCc1cc(=O)oc2c(C(=O)CC(C)C)c(O)c(CC=C(C)C)c(O)c12
Reply: > 50 µM

Task item: State the recorded TGI for this entry: C=CCn1c2ccccc2c2c(C)c3cnccc3c(C)c21
Reply: 40.4 µM
